Values were extracted from ChEMBL document CHEMBL4689842.

# System: U2OS
# Assay Method Text: Multiplex assay against U2OS
# Format: toxicity, cell-based
# Test Context: human, 48 h, 10 µM, compound concentration 10 uM, replicate 1
The following molecules are shown together with reported Population Apoptotic (%) values.
Report the value in % with no unit label.

Report its Population Apoptotic (%) with U2OS as the test system: CC[C@H](C)C(=O)O[C@H]1C[C@@H](C)C=C2C=C[C@H](C)[C@H](CC[C@@H]3C[C@@H](O)CC(=O)O3)[C@H]21 [LOVASTATIN]
40

Report its Population Apoptotic (%) with U2OS as the test system: NC(=O)Nc1cc(-c2cccc(F)c2)sc1C(=O)N[C@H]1CCCNC1 [AZD-7762]
95

---
Report its Population Apoptotic (%) with U2OS as the test system: CC(C)(O)CNc1ncc(-c2ccnc(Nc3ccnc(Cl)c3)n2)c(CC2CC2)n1
82

====

# Tested on: HEK-293T
# Assay Method Text: Multiplex assay against HEK293T
# Assay type: toxicity, cell-based
# Test Context: human, 12 h, 1 µM, compound concentration 1 uM, replicate 1
The following compounds are shown together with reported Population Normal (%) values.
Report the value in % with no unit label.

Use the examples below as a reference point.
Identify measured Population Normal (%) associated with C[C@@]1(C(=O)Nc2ccc(F)nc2)CCCN1c1nc(Nc2cc(C3CC3)n[nH]2)c2cccn2n1
74

Identify measured Population Normal (%) associated with C[C@@H](NCCCc1cccc(C(F)(F)F)c1)c1cccc2ccccc12.Cl [CINACALCET HYDROCHLORIDE]
91

Identify measured Population Normal (%) associated with CN1CCN(CCOc2cc(OC3CCOCC3)c3c(Nc4c(Cl)ccc5c4OCO5)ncnc3c2)CC1
84

Could you now consider this next compound?
Identify measured Population Normal (%) associated with CN1CCCC(n2nc(Cc3ccc(Cl)cc3)c3ccccc3c2=O)CC1.Cl (centres undefined) [AZELASTINE HYDROCHLORIDE]
90

====

# Tested on: Fibroblast
# Assay Method Text: Multiplex assay against human fibroblast
# Format: toxicity, cell-based
# Test Context: 24 h, 1 µM, compound concentration 1 uM, replicate 1
The threshold is inclusive: Population Fragmented Nuclei (%) of exactly 30% counts as Satisfied; values below receive Not satisfied.

Past entries and their recorded results:
Please indicate if the recorded Population Fragmented Nuclei (%) for CN(C)C(=O)N[C@H]1CC[C@H](CCN2CCN(c3cccc(Cl)c3Cl)CC2)CC1.Cl [CARIPRAZINE HYDROCHLORIDE] meets or exceeds 30%.
Not satisfied

Please indicate if the recorded Population Fragmented Nuclei (%) for c1cn2cc(-c3ccc4cn[nH]c4c3)nc(Nc3ccc(N4CCOCC4)cc3)c2n1 meets or exceeds 30%.
Not satisfied

---
Please indicate if the recorded Population Fragmented Nuclei (%) for Cl.N#Cc1ccc2[nH]cc(CCCCN3CCN(c4ccc5oc(C(N)=O)cc5c4)CC3)c2c1 [VILAZODONE HYDROCHLORIDE] meets or exceeds 30%.
Satisfied

====

# Test system: U2OS
# Assay Method Text: Multiplex assay against U2OS
# Type: toxicity, cell-based
# Test Context: human, 12 h, 10 µM, compound concentration 10 uM, replicate 2
The following compounds are shown together with reported Population Hoechst High Intensity Objects (%) values.
Report the value in % with no unit label.

Identify measured Population Hoechst High Intensity Objects (%) associated with CN(C)c1ncnc(-c2ccc3nc(Nc4cc(CN5CCN(C(=O)CC(F)(F)F)CC5)ccn4)[nH]c3c2)c1Cl [BAY-440]
8

Identify measured Population Hoechst High Intensity Objects (%) associated with Cc1cc(C)cc(-c2cnc3cc(Cl)c(-c4cccc(O)c4)cc3c2OCCCN)c1
8

Could you now consider this next compound?
Identify measured Population Hoechst High Intensity Objects (%) associated with CC[C@H](C)C(=O)O[C@H]1C[C@@H](C)C=C2C=C[C@H](C)[C@H](CC[C@@H]3C[C@@H](O)CC(=O)O3)[C@H]21 [LOVASTATIN]
8
